# TARGET_ENTITY: human TGFßRII (antigen of the Octet experiments) (human, UniProt P37173 23-166)
# Sequence (P37173 23-166): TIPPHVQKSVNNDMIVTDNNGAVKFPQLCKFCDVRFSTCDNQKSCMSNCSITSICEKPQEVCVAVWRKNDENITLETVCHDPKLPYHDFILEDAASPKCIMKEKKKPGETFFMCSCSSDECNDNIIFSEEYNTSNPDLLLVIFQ
ASSAY_READOUT: Kd
Show the value, then the unit it is measured in.

Which Kd is listed for TBRII-A_H1.1_L1 (antibody, V domains shown) VH: QLQVQESGPGLVKPSETLSLTCTVSGGSISNSYFSWGWIRQPPGKGLEWIGSFYYGEKTYYNPSLKSRATISIDTSKSQFSLKLSSVTAADTAVYYCPRGPTVIRGVIDSWGQGTLVTVSS VL: EIVLTQSPATLSLSPGERATLSCRASQSVRSYLAWYQQKPGQAPRLLIYDASNRATGIPARFSGSGSGTDFTLTISSLEPEDFAVYYCQQRSNWPPTFGQGTKVEIK ? 2.1 nM

Which Kd is listed for XENP37814 TBRII-A_H1.189_L1.53 (antibody, V domains shown) VH: QLQVQESGPGLVKPSETLSLTCTVSGGSISSSYFSWGWIRQPPGKGLEWIGSFYYGGKTYYNPSLKSRATISIDTSKNQFSLKLSSVTAADTAVYYCARGPTLIRGVIDSWGQGTLVTVSS VL: EIVLTQSPATLSLSPGERATLSCRASQSVRSYLAWYQQKPGQAPRLLIYDASNRATGIPARFSGSGSGTDFTLTISSLEPEDFAVYYCQQRSNYPPTFGQGTKVEIK ? 58.9 nM

Which Kd is listed for TBRII-A_H1.30_L1 (antibody, V domains shown) VH: QLQVQESGPGLVKPSETLSLTCTVSGGSISNSYFYWGWIRQPPGKGLEWIGSFYYGEKTYYNPSLKSRATISIDTSKSQFSLKLSSVTAADTAVYYCPRGPTMIRGVIDSWGQGTLVTVSS VL: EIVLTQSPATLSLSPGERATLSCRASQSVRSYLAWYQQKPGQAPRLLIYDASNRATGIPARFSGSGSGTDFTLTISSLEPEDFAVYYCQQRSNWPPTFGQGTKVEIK ? 14 nM

Which Kd is listed for TBRII-A_H1.51_L1 (antibody, V domains shown) VH: QLQVQESGPGLVKPSETLSLTCTVSGGSISNSYFSWGWIRQPPGKGLEWIGSFNYGEKTYYNPSLKSRATISIDTSKSQFSLKLSSVTAADTAVYYCPRGPTMIRGVIDSWGQGTLVTVSS VL: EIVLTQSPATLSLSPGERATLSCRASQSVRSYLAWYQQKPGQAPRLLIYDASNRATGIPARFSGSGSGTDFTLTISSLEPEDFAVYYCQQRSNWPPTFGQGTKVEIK ? 53 nM

Which Kd is listed for XENP37819 TBRII-A_H1.273_L1.53 (antibody, V domains shown) VH: QLQVQESGPGLVKPSETLSLTCTVSGGSISSSYFSWHWIRQPPGKGLEWIGSFYYGGKTYYNPSLKSRATISIDTSKNQFSLKLSSVTAADTAVYYCARGPTTIRGVIDSWGQGTLVTVSS VL: EIVLTQSPATLSLSPGERATLSCRASQSVRSYLAWYQQKPGQAPRLLIYDASNRATGIPARFSGSGSGTDFTLTISSLEPEDFAVYYCQQRSNYPPTFGQGTKVEIK ? 7.7 nM

Which Kd is listed for XENP37821 TBRII-A_H1.274_L1 (antibody, V domains shown) VH: QLQVQESGPGLVKPSETLSLTCTVSGGSISNAYFSWGWIRQPPGKGLEWIGSFNYGGKTYYNPSLKSRATISIDTSKNQFSLKLSSVTAADTAVYYCARGPTLIRGVIDSWGQGTLVTVSS VL: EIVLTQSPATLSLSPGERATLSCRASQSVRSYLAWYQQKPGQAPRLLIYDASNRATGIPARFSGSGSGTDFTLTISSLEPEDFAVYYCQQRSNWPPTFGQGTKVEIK ? 16.8 nM

Which Kd is listed for XENP37822 TBRII-A_H1.201_L1.53 (antibody, V domains shown) VH: QLQVQESGPGLVKPSETLSLTCTVSGGSISNAYFSWGWIRQPPGKGLEWIGSFYYGGKTYYNPSLKSRATISIDTSKNQFSLKLSSVTAADTAVYYCARGPTLIRGVIDSWGQGTLVTVSS VL: EIVLTQSPATLSLSPGERATLSCRASQSVRSYLAWYQQKPGQAPRLLIYDASNRATGIPARFSGSGSGTDFTLTISSLEPEDFAVYYCQQRSNYPPTFGQGTKVEIK ? 46.6 nM
